biological target: Dual specificity tyrosine-phosphorylation-regulated kinase 1A (Rattus norvegicus, UniProt Q63470); assay type: biochemical, Homo sapiens
Calls of active or inactive are those of the source.
A correct response names exactly one class from 1 (yes) for active, 0 (no) for inactive

Lookup: GET /call?item= "COc1ccc2c(c1)C(=NNc1ccc(C(=O)O)cc1)c1cc(OC)ccc1-2" returns the recorded outcome of this test.
Found: 1 (yes)

Lookup: GET /call?item= "O=C1NC(=S)SC1=Cc1cc(Br)ccc1O" returns the recorded outcome of this test.
Found: 1 (yes)

Lookup: GET /call?item= "CNC(=S)N/N=C/c1ccc(-c2cccc(C(=O)O)c2)o1" returns the recorded outcome of this test.
Found: 1 (yes)

Lookup: GET /call?item= "O=C(Nc1nc2c(s1)CCCC2)c1ccc(N2C(=O)CCC2=O)cc1" returns the recorded outcome of this test.
Found: 1 (yes)

Lookup: GET /call?item= "Cc1ccc(CNC(=O)c2cc3c(=O)n(C)c4ccccc4c3n2C)o1" returns the recorded outcome of this test.
Found: 0 (no)

Pending compound:
Lookup: GET /call?item= "CN1/C(=N\O)c2cccc3cccc1c23" returns the recorded outcome of this test.
Found: 1 (yes)

* * *

target: Cytochrome P450 2C19 (Homo sapiens, UniProt P33261); test: Cytochrome panel assay with activity outcomes. Panel member name: p450-cyp2c19 Compounds with AC50 equal or less than 10 uM are considered active; assay type: functional
Sequence (P33261 whole entry): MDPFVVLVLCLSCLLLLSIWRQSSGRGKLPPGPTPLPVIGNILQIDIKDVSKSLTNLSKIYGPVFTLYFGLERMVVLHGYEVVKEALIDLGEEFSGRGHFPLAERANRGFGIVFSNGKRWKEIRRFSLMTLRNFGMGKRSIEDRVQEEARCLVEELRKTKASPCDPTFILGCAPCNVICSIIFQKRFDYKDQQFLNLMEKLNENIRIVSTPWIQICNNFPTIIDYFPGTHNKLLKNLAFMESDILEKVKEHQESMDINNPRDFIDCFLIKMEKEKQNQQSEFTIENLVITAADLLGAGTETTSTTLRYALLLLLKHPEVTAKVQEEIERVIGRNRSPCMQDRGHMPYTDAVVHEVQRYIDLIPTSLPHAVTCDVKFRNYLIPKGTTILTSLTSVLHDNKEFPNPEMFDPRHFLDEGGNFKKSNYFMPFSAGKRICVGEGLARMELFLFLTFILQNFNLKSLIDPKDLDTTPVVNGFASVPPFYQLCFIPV
assay.readout: AC50

Record "CC[C@@]1([N+](=O)[O-])C[C@H]2C=C[C@@H]1C2.CC[C@@]1([N+](=O)[O-])C[C@H]2C=C[C@@H]1C2" , field AC50: inconclusive

Record Cc1ccc(/C(O)=C/C2=NCC(C)NC2=O)cc1 (stereo not drawn) , field AC50: inconclusive

Record "CN(CCCNC(=O)c1ccc(/C=N/O)nc1)CCCN(C)Cc1ccccc1" , field AC50: inconclusive

Record "CCOc1nc(N=C(N)N)nc2c(C)cccc12" , field AC50: inconclusive

Record "CC(=O)[C@H](C(=N)C#N)C(=O)Nc1ccccc1" , field AC50: inconclusive

***
Record "Cn1cc(-c2nnc(-c3ccccc3)o2)c2ccccc21" , field AC50: inconclusive

Record "Cc1cccc(NC(S)=NNC(=O)CCn2cc(C)cn2)c1" , field AC50: inconclusive

Record "COCC(=O)N1CCC2(CCCN(C(=O)Nc3ccc(OC)cc3)C2)CC1" , field AC50: inconclusive

* * *

Collected EC50 values appear next to each entry.
test: Trypanosoma cruzi growth suppression in host cells – NIH3T3 host cells, beta-gal luminescence, confirmation (AID 2044); type: functional, cell-based;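 also: intracellular parasites grown in NIH/3T3 mouse fibroblasts as host cells; luminescent beta-galactosidase reporter signal from transgenic T. cruzi replicating inside host cells; inhibitors lower the luminescence signal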
Activity calls are given as the source filed them.

Answered cases to consult:
Record FC(F)(F)COc1nc(N/N=C/c2cccnc2)nc(N2CCCCC2c2ccccn2)n1 (centres undefined) , field EC50: 2370 nM (active)

Record "O=C(NCc1ccccc1)C1=C[C@@H](c2ccc(C(F)(F)F)cc2)C[C@@H](OCc2ccc(CO)cc2)O1" , field EC50: 669 nM (active)

Record CCC(C)NCCOCCOc1ccc(Br)cc1 (centres undefined) , field EC50: 106 nM (active)

Record "Cc1ccc(C(=O)N/N=C/c2c(O)ccc3ccccc23)cn1" , field EC50: 1590 nM (active)

Record COc1ccc(Cl)cc1C(=O)C1CCCN(Cc2cnc(N3CCOCC3)s2)C1 (centres undefined) , field EC50: 135 nM (active)

***
Record "COCc1cc(C)nc(SCC(=O)Nc2cc(C(F)(F)F)ccc2N2CCOCC2)c1C#N" , field EC50: 807 nM (active)

Record "CCN1CCN(CCNC(=O)c2ccc(/C=C3\Sc4ccccc4N(Cc4ccccc4F)C3=O)cc2)CC1" , field EC50: 2030 nM (active)

Record "O=C(Nc1cccc(N2CCCC2)c1)c1cccs1" , field EC50: 4670 nM (active)

Record CCCCCCC1CC(C)(C(=O)CNc2nncs2)OC1=O (centres undefined) , field EC50: 1300 nM (active)
